Values from patent US9018258B2

target: sGC (Rattus norvegicus, UniProt P20595); construct: expressed in transfected cells; host or cells: CHO reporter cell; assay: Action at a recombinant guanylate cyclase reporter cell line (CHO reporter cell); type: cell-based; conditions: CHO reporter cell in vitro
Sequence (P19686 whole entry partner): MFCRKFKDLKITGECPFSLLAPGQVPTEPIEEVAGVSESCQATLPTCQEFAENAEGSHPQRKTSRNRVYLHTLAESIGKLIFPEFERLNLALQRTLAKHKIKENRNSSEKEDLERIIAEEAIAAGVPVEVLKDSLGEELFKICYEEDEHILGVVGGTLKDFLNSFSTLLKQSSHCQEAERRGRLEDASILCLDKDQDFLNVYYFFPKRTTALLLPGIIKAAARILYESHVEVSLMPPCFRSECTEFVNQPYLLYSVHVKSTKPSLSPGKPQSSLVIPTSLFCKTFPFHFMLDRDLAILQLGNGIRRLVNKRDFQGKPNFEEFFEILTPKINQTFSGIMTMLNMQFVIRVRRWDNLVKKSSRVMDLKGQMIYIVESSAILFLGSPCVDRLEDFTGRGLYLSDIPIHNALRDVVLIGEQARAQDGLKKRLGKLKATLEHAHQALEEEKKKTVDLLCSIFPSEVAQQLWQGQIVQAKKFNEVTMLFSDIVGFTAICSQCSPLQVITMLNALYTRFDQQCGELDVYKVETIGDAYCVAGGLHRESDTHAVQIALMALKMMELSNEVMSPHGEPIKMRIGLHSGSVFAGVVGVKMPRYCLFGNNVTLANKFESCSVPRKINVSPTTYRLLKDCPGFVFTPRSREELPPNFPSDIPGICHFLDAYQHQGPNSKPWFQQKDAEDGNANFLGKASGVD
Sequence (P20595 whole entry): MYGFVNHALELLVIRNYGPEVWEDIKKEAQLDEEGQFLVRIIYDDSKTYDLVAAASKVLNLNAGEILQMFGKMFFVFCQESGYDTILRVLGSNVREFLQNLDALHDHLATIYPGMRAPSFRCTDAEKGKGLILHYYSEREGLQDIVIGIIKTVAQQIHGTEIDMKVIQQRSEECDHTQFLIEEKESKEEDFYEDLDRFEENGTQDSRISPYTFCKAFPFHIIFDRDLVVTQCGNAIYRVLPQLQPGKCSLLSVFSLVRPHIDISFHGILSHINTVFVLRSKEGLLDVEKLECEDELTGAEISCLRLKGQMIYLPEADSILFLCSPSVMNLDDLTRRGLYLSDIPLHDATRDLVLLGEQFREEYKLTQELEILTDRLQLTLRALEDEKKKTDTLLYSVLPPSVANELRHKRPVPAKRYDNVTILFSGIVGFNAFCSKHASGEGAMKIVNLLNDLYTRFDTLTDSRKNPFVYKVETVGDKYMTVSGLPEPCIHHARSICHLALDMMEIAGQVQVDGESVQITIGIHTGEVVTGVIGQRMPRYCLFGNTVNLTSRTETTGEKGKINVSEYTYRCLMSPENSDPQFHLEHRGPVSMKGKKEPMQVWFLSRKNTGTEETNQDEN
Please go through the items and note down their MEC (minimum effective concentration), sGC-activating activity in the CHO reporter cell.
Answer format: numeric, nM implied, no suffix.

q: Quick one: MEC (minimum effective concentration), sGC-activating activity in the CHO reporter cell of C[C@H]([C@H](C(=O)Nc1cccc(CC2(C(=O)O)CC2)c1Cl)c1ccc(Cl)cc1)C(F)(F)F ?
a: 100

q: Quick one: MEC (minimum effective concentration), sGC-activating activity in the CHO reporter cell of N#Cc1ccc(C(C(=O)Nc2cc(CC3(C(=O)O)CC3)ccc2F)C2CCCC2)cc1 (racemic) ?
a: 30

q: Quick one: MEC (minimum effective concentration), sGC-activating activity in the CHO reporter cell of O=C(Nc1cc(CC2(C(=O)O)CC2)ccc1F)C(c1ccc(Cl)cc1F)C1CCCC1 (racemic) ?
a: 1

q: Quick one: MEC (minimum effective concentration), sGC-activating activity in the CHO reporter cell of CC(C(C(=O)Nc1cccc(CC2(C(=O)O)CC2)c1)c1ccc(Cl)cc1)C(F)(F)F (single isomer, unassigned) ?
a: 20

q: Quick one: MEC (minimum effective concentration), sGC-activating activity in the CHO reporter cell of O=C(Nc1cc(CC2(C(=O)O)CC2)ccc1F)C(c1ccc(Cl)cc1)C1CCCC1(F)F (racemic) ?
a: 5.3

q: Quick one: MEC (minimum effective concentration), sGC-activating activity in the CHO reporter cell of C[C@H]([C@H](C(=O)Nc1cc(CC2(C(=O)O)CC2(F)F)ccc1Cl)c1ccc(Cl)cc1)C(F)(F)F (stereo partly shown) [Example 69] ?
a: 3

q: Quick one: MEC (minimum effective concentration), sGC-activating activity in the CHO reporter cell of C[C@H]([C@H](C(=O)Nc1cc(CC2(C(=O)O)CC2)ccc1F)c1ccc(C2CC2)cc1)C(F)(F)F ?
a: 0.3

q: Quick one: MEC (minimum effective concentration), sGC-activating activity in the CHO reporter cell of C[C@H]([C@H](C(=O)Nc1cc(CC2(C(=O)O)CC2)ccc1C1CC1)c1ccc(Cl)cc1)C(F)(F)F ?
a: 10

q: Quick one: MEC (minimum effective concentration), sGC-activating activity in the CHO reporter cell of C[C@H]([C@H](C(=O)Nc1cc(CC2(C(=O)O)CC2)ccc1Cl)c1ccc(Cl)cc1F)C(F)(F)F ?
a: 2.3

q: Quick one: MEC (minimum effective concentration), sGC-activating activity in the CHO reporter cell of CCc1ccc(C(C(=O)Nc2cc(CC3(C(=O)O)CC3)ccc2F)C(C)C(F)(F)F)cc1 (racemic) ?
a: 1

q: Quick one: MEC (minimum effective concentration), sGC-activating activity in the CHO reporter cell of O=C(Nc1cc(CC2(C(=O)O)CC2)ccc1F)C(c1ccc([N+](=O)[O-])cc1)C1CCCC1 (racemic) ?
a: 10

q: Quick one: MEC (minimum effective concentration), sGC-activating activity in the CHO reporter cell of CCC(c1ccc(Cl)c(NC(=O)[C@H](c2ccc(Cl)cc2)[C@@H](C)C(F)(F)F)c1)C1(C(=O)O)CC1 (stereo partly shown) ?
a: 0.3

q: Quick one: MEC (minimum effective concentration), sGC-activating activity in the CHO reporter cell of C[C@H]([C@H](C(=O)Nc1cc(CC2(C(=O)O)CC2)ccc1Cl)c1ccc(C(C)(C)C(F)(F)F)cc1)C(F)(F)F ?
a: 0.3

q: Quick one: MEC (minimum effective concentration), sGC-activating activity in the CHO reporter cell of C[C@H]([C@H](C(=O)Nc1cc(CC2(C(=O)O)CC2(F)F)ccc1Cl)c1ccc(Cl)cc1)C(F)(F)F (single isomer, unassigned; (+)) [Example 71] ?
a: 3

q: Quick one: MEC (minimum effective concentration), sGC-activating activity in the CHO reporter cell of O=C(Nc1cccc(CC2(C(=O)O)CC2)c1)C(c1ccc(CC(F)F)cc1)C1CCCC1 (racemic) ?
a: 100

q: Quick one: MEC (minimum effective concentration), sGC-activating activity in the CHO reporter cell of C[C@H]([C@H](C(=O)Nc1cc(C(O)C2(C(=O)O)CC2)ccc1Cl)c1ccc(Cl)cc1)C(F)(F)F (single isomer, unassigned) [Example 104] ?
a: 20

q: Quick one: MEC (minimum effective concentration), sGC-activating activity in the CHO reporter cell of C[C@H]([C@H](C(=O)Nc1cc(CC2(C(=O)O)CC2)ccc1Cl)c1ccc(Cl)c(F)c1)C(F)(F)F ?
a: 0.3

q: Quick one: MEC (minimum effective concentration), sGC-activating activity in the CHO reporter cell of CCc1ccc([C@@H](C(=O)Nc2cc(CC3(C(=O)O)CC3)ccc2F)[C@@H](C)C(F)(F)F)cc1 ?
a: 0.3

q: Quick one: MEC (minimum effective concentration), sGC-activating activity in the CHO reporter cell of C[C@H]([C@H](C(=O)Nc1cc(C(OC2CC2)C2(C(=O)O)CC2)ccc1Cl)c1ccc(Cl)cc1)C(F)(F)F (single isomer, unassigned) [Example 113] ?
a: 0.3
